Where do the numbers come from? From patent EP1515965B1.

target-under-test: Rho-Kinase II (ROKα) (Rattus norvegicus)
Sequence (Q62868 whole entry): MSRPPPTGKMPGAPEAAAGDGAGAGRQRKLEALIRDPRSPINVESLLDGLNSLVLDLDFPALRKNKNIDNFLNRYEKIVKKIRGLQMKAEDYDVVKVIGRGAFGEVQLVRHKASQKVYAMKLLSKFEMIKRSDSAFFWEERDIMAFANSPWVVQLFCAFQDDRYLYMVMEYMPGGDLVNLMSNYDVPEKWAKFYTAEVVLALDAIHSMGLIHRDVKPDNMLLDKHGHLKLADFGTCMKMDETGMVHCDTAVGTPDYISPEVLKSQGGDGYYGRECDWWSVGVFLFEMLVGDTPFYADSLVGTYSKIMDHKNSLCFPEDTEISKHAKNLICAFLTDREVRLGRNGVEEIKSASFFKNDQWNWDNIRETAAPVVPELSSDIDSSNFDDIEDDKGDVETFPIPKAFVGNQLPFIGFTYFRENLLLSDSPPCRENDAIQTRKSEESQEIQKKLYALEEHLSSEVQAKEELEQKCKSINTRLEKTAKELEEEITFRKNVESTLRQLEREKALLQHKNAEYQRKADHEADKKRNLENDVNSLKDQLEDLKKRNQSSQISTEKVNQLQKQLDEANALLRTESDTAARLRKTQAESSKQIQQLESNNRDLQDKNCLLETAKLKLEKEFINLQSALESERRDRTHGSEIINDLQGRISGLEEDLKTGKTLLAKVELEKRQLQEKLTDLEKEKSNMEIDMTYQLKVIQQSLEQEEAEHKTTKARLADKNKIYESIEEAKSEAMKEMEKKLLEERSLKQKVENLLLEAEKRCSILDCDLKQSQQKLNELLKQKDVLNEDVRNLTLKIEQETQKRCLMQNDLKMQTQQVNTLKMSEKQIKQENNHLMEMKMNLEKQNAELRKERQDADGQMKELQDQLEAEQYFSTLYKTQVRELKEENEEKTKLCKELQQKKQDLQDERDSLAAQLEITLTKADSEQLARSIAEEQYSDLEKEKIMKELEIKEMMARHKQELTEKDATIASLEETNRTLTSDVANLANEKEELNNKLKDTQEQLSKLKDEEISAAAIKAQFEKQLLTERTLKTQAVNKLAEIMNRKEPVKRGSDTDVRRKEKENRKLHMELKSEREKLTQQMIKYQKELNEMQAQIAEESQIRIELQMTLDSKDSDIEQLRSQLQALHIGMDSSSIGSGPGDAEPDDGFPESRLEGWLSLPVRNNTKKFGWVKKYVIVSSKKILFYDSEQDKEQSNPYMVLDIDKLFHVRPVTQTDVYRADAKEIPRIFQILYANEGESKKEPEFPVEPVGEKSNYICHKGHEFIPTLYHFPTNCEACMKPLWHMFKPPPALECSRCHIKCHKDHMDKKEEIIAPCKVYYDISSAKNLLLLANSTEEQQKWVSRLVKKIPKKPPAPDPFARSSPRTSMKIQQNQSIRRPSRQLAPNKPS
experiment-summary: Inhibition of recombinant Rho-kinase II (ROKα), 33P-phosphate incorporation into S6 substrate peptide
condition-summary: recombinant Rho-Kinase II (Upstate Biotechnology), S6 Phosphate-Acceptor-Peptide, 33P-ATP, 20 min at 37°C
readout-type: log10(IC50) (log10 of the value in nM)
Recorded IC50 (log10, nM)

## Input Look up log10(IC50) for this molecule: "Nc1nc(Nc2cc(F)c(Sc3ccncc3)c(F)c2)cc(N2C[C@H]3CCCN[C@H]3C2)n1"
## Output 0.70

## Input Report log10(IC50) for "Nc1nc(Nc2ccc(Sc3ccncc3)c(F)c2)cc(-c2ccc3ncccc3c2)n1" please.
## Output 0.85

## Input Field request: log10(IC50) | item: "Nc1nc(Nc2ccc(Sc3ccncc3)c(F)c2)cc(N2C[C@H]3CCCN[C@H]3C2)n1"
## Output 1.04

## Input Requested field: log10(IC50). Item: "Nc1nc(Nc2cc(F)c(Sc3ccncc3)c(Cl)c2)cc(N2C[C@H]3CCCN[C@H]3C2)n1"
## Output 0.78

## Input Would you mind telling me what log10(IC50) value was observed for "Nc1nc(Nc2ccc(Sc3ccncc3)c(F)c2)cc(Oc2cccc(Cl)c2)n1" ?
## Output 1.85
